End (RU) values for the binders below.
molecular target: T1, recombinant human IL4Rα-his protein (in house made) (human, UniProt P24394 26-232, limits assumed); test: SPR (Biacore), antibody captured, IL4Rα-his flowed
T1 construct: also called Human IL4Ra-his
The figure you give is taken to be in RU; do not add the unit.

These solved cases illustrate the format of a correct answer.
BINDER: huC2C1A1A1-V1 (antibody, human IgG4 S228P, kappa, V domains shown, Humanized, human IgG4/kappa) VH: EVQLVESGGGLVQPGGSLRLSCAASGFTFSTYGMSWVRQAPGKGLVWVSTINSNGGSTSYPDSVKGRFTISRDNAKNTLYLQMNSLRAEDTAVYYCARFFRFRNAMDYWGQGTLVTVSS VL: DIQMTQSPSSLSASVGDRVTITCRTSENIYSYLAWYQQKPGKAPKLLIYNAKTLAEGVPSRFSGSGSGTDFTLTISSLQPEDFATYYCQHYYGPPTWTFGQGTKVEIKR
UNIT: RU
RESULT VALUE: 44

BINDER: huC2C1A1A1-V4 (antibody, human IgG4 S228P, kappa, V domains shown, Humanized, human IgG4/kappa) VH: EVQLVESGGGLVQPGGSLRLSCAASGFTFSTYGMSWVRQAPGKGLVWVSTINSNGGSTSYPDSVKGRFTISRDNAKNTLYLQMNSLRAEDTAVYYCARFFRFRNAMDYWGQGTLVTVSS VL: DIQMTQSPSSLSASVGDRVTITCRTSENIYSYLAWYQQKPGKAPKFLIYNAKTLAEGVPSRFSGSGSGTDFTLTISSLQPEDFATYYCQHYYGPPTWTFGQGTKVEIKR
UNIT: RU
RESULT VALUE: 49.6

Please turn your attention to the following entry.
Any idea what its End (RU) is? The binder is huC2C1A1A1-V10 (antibody, human IgG4 S228P, kappa, V domains shown, Humanized, human IgG4/kappa) VH: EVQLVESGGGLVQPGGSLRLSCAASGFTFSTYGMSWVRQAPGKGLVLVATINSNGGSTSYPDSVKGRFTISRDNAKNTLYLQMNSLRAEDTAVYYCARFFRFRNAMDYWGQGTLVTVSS VL: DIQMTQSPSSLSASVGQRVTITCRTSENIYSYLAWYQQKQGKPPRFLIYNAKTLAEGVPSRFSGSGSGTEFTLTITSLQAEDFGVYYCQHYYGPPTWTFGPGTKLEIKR
63.9
